target: M3 muscarinic acetylcholine (mACh) receptor (Homo sapiens); experiment: Fura-2 Ca2+ mobilization in SH-SY5Y cells endogenously expressing the receptor (also Ins([…])P3 and phospho-CREB)
Sequence (P20309 whole entry): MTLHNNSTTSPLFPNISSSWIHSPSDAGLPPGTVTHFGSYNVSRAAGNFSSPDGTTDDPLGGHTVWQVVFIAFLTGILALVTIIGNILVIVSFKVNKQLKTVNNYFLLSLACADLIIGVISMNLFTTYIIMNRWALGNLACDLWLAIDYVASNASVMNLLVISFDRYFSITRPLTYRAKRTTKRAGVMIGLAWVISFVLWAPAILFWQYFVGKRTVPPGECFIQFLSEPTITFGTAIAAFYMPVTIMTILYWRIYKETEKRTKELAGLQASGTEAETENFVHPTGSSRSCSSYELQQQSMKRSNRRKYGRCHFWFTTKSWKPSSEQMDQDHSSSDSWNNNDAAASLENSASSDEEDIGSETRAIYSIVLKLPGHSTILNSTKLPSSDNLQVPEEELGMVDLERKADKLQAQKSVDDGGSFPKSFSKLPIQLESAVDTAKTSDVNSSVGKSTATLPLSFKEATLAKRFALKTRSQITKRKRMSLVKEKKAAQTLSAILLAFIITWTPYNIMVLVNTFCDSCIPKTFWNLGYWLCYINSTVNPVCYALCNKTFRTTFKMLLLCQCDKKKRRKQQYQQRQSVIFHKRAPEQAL
pEC50: −log10 of the molar value.
result-type: pEC50

compound: CC(=O)OC(C)C[N+](C)(C)C (stereo not shown) [MCh, methacholine]
readout-number: 6.10
